The origin of these recorded values is ChEMBL document CHEMBL3286182.

- System: Mycobacterium tuberculosis
- measurement description: Antimycobacterial activity against Mycobacterium tuberculosis H37Rv after 5 days by standard microdilution method
- Format: functional
- recorded conditions: 120 h
test readout: MIC (µM)
Response body: numeric value in µM, unit text excluded.

The following molecules have reported results that may help.
Return reported MIC; argument: C[C@H]1C[C@H](Nc2cc(=O)[nH]c3cc(F)c(F)cc23)CCN1C(=O)c1cnn(C)c1Cl
0.39

Same read-out for Cn1ncc(C(=O)N2[C@@H]3CC[C@H]2C[C@@H](Nc2cc(=O)n(C)c4ncccc24)C3)c1Cl ?
0.25

Same read-out for Cn1ncc(C(=O)N2CCC(Oc3cc(=O)[nH]c4ccccc34)CC2)c1Cl ?
50

Continuing:
Return reported MIC; argument: Cc1onc(C(=O)N2[C@@H]3CC[C@H]2C[C@@H](Nc2cc(=O)n(C)c4cc(F)c(F)cc24)C3)c1C
0.12

Same read-out for CCn1ncc(C(=O)N2CCC(Nc3cc(=O)[nH]c4ccc(F)cc34)CC2)c1Cl ?
12.5

Same read-out for Cn1ncc(C(=O)N2[C@@H]3CC[C@H]2C[C@@H](Nc2cc(=O)[nH]c4cc(F)c(F)cc24)C3)c1Cl ?
0.06

Same read-out for Cn1cc(C(=O)N2CCC(Nc3cc(=O)[nH]c4ccccc34)CC2)cn1 ?
140

Same read-out for Cn1ncc(C(=O)N2CCC(Nc3cc(=O)n(C)c4cc(F)c(F)cc34)CC2)c1Cl ?
3.1

Same read-out for Cn1ncc(C(=O)N2[C@@H]3CC[C@H]2C[C@@H](Nc2n[nH]c4ccc(F)cc24)C3)c1Cl ?
6.25

---

- System: Mycobacterium tuberculosis
- measurement description: Antimycobacterial activity against Mycobacterium tuberculosis H37Rv after 5 days by standard microdilution method
- Type: functional
- recorded conditions: 120 h
test readout: MIC

The following compounds have reported results that may help.
Return reported MIC; argument: Cn1ncc(C(=O)N2[C@@H]3CC[C@H]2C[C@H](Nc2cc(=O)[nH]c4ccc(F)cc24)C3)c1Cl
> 200 µM

Same read-out for Cn1ncc(C(=O)N2CCC(Nc3cc(=O)[nH]c4ccccc34)C2)c1Cl (centres undefined) ?
> 200 µM

Same read-out for Cn1ncc(C(=O)N2CCC(Nc3cnnc4ccccc34)CC2)c1Cl ?
> 200 µM

Continuing:
Return reported MIC; argument: CCn1c(=O)cc(NC2CCN(C(=O)c3cnn(C)c3Cl)CC2)c2ccccc21
> 100 µM
